Ref: patent US20250326839A1

Target: T1, human TREM2 (human, UniProt Q9NZC2 19-174, limits assumed)
T1 construct: also called triggering receptor expressed on myeloid cells 2
T1 sequence: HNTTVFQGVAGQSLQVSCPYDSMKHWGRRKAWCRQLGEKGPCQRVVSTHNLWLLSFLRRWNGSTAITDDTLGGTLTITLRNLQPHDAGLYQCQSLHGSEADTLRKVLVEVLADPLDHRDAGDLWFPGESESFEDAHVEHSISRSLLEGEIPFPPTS
Assay: 1st screen, 10 nM Ab
The entries below are paired with their reported Binding Signal.

# binder, Binding Signal
rows = [
    ("V48 (antibody, V domains shown, also called 6E7 variant V48) VH: EVQLVQSGAEVKKPGESLKISCKGSGYSFGSYWIAWVRQMPGKGLEWMGIIYPGDSDVRYSPSFQGQVTISADKSISTAYLQWSSLKASDTAMYFCARMRTFYYDSSDYFDYWGQGTLVTVSS VL: DIQMTQSPSSVSASVGDRVTITCRASQGISSWLAWYQQKPGKAPKLLIYAASSLQTGVPSRFSGSGSGTDFTLTISSLQPEDFATYFCQQADSLPRTFGQGTKLEIK", "2.42 fold over 6E7 parental antibody"),
    ("V64 (antibody, V domains shown, also called 6E7 variant V64) VH: EVQLVQSGAEVKKPGESLKISCKGSGYSFQSYWIAWVRQMPGKGLEWMGIIYPGDSDTRYSPSFQGQVTISADKSISTAYLQWSSLKASDTAMYFCARGRTFYYDSSDYFDYWGQGTLVTVSS VL: DIQMTQSPSSVSASVGDRVTITCRASQGISSWLAWYQQKPGKAPKLLIYAASSLANGVPSRFSGSGSGTDFTLTISSLQPEDFATYFCQQADSYPRTFGQGTKLEIK", "5.41 fold over 6E7 parental antibody"),
    ("V89 (antibody, V domains shown, also called 6E7 variant V89) VH: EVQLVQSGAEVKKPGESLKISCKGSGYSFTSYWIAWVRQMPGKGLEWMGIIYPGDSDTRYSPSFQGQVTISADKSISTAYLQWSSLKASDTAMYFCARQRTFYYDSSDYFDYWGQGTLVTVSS VL: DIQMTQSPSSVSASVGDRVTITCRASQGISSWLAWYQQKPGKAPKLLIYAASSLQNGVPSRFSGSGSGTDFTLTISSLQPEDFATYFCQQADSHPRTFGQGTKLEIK", "1.33 fold over 6E7 parental antibody"),
    ("V87 (antibody, V domains shown, also called 6E7 variant V87) VH: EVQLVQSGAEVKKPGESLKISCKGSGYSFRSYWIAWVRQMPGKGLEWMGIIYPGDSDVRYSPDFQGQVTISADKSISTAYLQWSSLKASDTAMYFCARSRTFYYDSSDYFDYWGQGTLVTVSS VL: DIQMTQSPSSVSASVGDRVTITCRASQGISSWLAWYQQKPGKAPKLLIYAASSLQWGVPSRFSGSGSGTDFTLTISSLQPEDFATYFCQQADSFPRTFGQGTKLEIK", "3.84 fold over 6E7 parental antibody"),
    ("V61 (antibody, V domains shown, also called 6E7 variant V61) VH: EVQLVQSGAEVKKPGESLKISCKGSGYSFSSYWIAWVRQMPGKGLEWMGIIYPGDSDTRYNPSFQGQVTISADKSISTAYLQWSSLKASDTAMYFCARGRTFYYDSSDYFDYWGQGTLVTVSS VL: DIQMTQSPSSVSASVGDRVTITCRASQGISSWLAWYQQKPGKAPKLLIYAASSLVNGVPSRFSGSGSGTDFTLTISSLQPEDFATYFCQQADSLPRTFGQGTKLEIK", "5.08 fold over 6E7 parental antibody"),
]
